Molecular target: MAGL (recombinant wild-type) (Homo sapiens, UniProt Q99685)
Sequence (Q99685 1-303): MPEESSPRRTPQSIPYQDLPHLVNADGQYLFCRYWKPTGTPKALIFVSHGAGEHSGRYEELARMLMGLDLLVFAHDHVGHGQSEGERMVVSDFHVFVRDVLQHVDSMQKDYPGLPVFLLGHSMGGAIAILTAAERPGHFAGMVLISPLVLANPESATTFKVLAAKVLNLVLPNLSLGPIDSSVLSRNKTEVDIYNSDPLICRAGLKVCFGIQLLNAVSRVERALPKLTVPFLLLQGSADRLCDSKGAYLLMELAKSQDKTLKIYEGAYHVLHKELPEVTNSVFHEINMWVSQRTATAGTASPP
Assay: MAGL inhibitory activity, hydrolysis of 4-nitrophenylacetate to 4-nitrophenol (absorbance at 405 nm)
Conditions: 1 nM MAGL, 300 μM 4-nitrophenylacetate, 15 min preincubation at RT, slope of absorbance at 405 nm between 5 and 80 min
Description: Compounds were profiled for MAGL inhibitory activity by measuring the enzymatic activity of MAGL by following the hydrolysis of 4-nitorphenylacetate resulting in 4-nitrophenol, which absorbs at 405-412 nm (G. G. Muccioli, G. Labar, D. M. Lambert, Chem. Bio. Chem. 2008, 9, 2704-2710). The assay was carried out in 384 well assay plates (black with clear bottom, non-binding surface treated, Corning Ref. 3655) in a total volume of 40 μL. […]
property label: log10 IC50 (log10 of the value in nM)
A difference of one corresponds to tenfold IC50; all values are log10 with IC50 in nM.

Take a look at these entries with their results.
O=C1COc2ccc(C(=O)N3CCC(Oc4ccccc4)C3)cc2N1 (centres unmarked) ... 3.02
O=C1COc2ccc(C(=O)N3CCC(Cc4cccc(C(F)(F)F)c4)CC3)cc2N1 ... 1.60

[in] Find the recorded log10 IC50 belonging to O=C1COc2ccc(C(=O)N3CCC(N(C(=O)Cc4ccccc4)C4CC4)CC3)cc2N1 and report it.
[out] 2.49

[in] What would you report for O=C1COc2ccc(C(=O)N3CCC(Cc4cccc(C(F)(F)F)c4)C3)cc2N1 (centres unmarked) ?
[out] 2.34

[in] What about O=C1COc2ccc(C(=O)N3CC(Cc4ccc(C(F)(F)F)cc4)C3)cc2N1 ?
[out] 2.18

[in] Same read-out for O=C1COc2ccc(C(=O)N3CCC(N4C[C@@H](c5ccccc5)OC4=O)CC3)cc2N1 ?
[out] 3.40

[in] And for O=C1COc2c(F)cc(C(=O)N3CCC(Cc4ccccc4)CC3)cc2N1 ?
[out] 2.15

[in] Input O=C1COc2ccc(C(=O)N3CCC(Cc4ccc(C(F)(F)F)cc4)CC3)cc2N1
[out] 1.54

[in] Next compound up: O=C1COc2ccc(C(=O)N3CCC(Cc4ccccc4)CC3)cc2N1
[out] 2.00

[in] # repeat for CC1CN(C(=O)c2ccc3c(c2)NC(=O)CO3)CCN1Cc1ccc(C(F)(F)F)cc1 (centres unmarked)
[out] 2.65

[in] Continue with O=C1COc2ccc(C(=O)N3CCN(Cc4ccc(C(F)(F)F)cc4)C(C(F)(F)F)C3)cc2N1 (centres unmarked)
[out] 2.05

====

biological target: MAGL (recombinant wild-type) (Homo sapiens, UniProt Q99685); experiment: MAGL inhibitory activity, hydrolysis of 4-nitrophenylacetate to 4-nitrophenol (absorbance at 405 nm); conditions: 1 nM MAGL, 300 μM 4-nitrophenylacetate, 15 min preincubation at RT, slope of absorbance at 405 nm between 5 and 80 min
Exam item: assign yes to entries whose IC50 is below 1000 nM and no to entries at or above 1000 nM. Note that a value of exactly 1000 nM receives no.

Solved cases (3 shown):
O=C1COc2ccc(C(=O)N3CCN(C(=O)c4ccc(C(F)(F)F)cc4)CC3)cc2N1 [Example 32] ... no
O=C1COc2ccc(C(=O)N3CCC(C(=O)c4ccccc4)CC3)cc2N1 [Example 13] ... yes
O=C1COc2ccc(C(=O)N3CCC(Cc4ccccc4)CC3)nc2N1 [Example 26] ... no

Now let's try a different one.
[in] Is it true that IC50 reported for O=C1COc2ccc(C(=O)N3CCC(Cc4ccc(Cl)cc4)CC3)cc2N1 [Example 12] is less than 1000 nM?
[out] yes

====

biological target: MAGL (recombinant wild-type) (Homo sapiens, UniProt Q99685); experiment: MAGL inhibitory activity, hydrolysis of 4-nitrophenylacetate to 4-nitrophenol (absorbance at 405 nm); conditions: 1 nM MAGL, 300 μM 4-nitrophenylacetate, 15 min preincubation at RT, slope of absorbance at 405 nm between 5 and 80 min
property label: IC50 (nM)
Write it as a number; the unit nM goes unstated.

These solved cases illustrate the format of a correct answer.
O=C1COc2ccc(C(=O)N3CCN(Cc4ccccc4)CC3)cc2N1 [Example 2] ... 3720
O=C1COc2ccc(C(=O)N3CCC(Cc4ccccn4)CC3)cc2N1 [Example 22] ... 1700
O=C1COc2ccc(C(=O)N3CCC(N4C[C@H](c5ccccc5)OC4=O)CC3)cc2N1 [Example 11] ... 1260
O=C1COc2ccc(C(=O)N3CCC(Cc4ccccc4)C3)cc2N1 (stereo not drawn) [Example 28] ... 840
O=C1COc2ccc(C(=O)N3CCC(Cc4cc(F)cc(F)c4)CC3)cc2N1 [Example 9] ... 58
O=C1COc2ccc(C(=O)N3CCC(Cc4cccc(F)c4)CC3)cc2N1 [Example 8] ... 47
O=C1COc2ccc(C(=O)N3CCC(Cc4ccc(C(F)(F)F)cc4)C3)cc2N1 (stereo not drawn) [Example 31] ... 400
O=C1COc2ccc(C(=O)N3CCC(O)(Cc4ccccc4)CC3)cc2N1 [Example 7] ... 4350
CN(C(=O)c1ccccc1)C1CCN(C(=O)c2ccc3c(c2)NC(=O)CO3)CC1 [Example 25] ... 830
O=C1COc2ccc(C(=O)N3CCC(S(=O)(=O)c4ccccc4)CC3)cc2N1 [Example 10] ... 4220

[in] Query (compound): O=C1COc2ccc(C(=O)N3CCC(Cc4cccc(F)c4F)CC3)cc2N1 [Example 16] ; field requested: IC50
[out] 66

[in] Now this one: N#Cc1ccc(CC2CCN(C(=O)c3ccc4c(c3)NC(=O)CO4)CC2)cc1 [Example 20]
[out] 370

[in] Also need O=C1COc2ccc(C(=O)N3CCN(Cc4ccc(C(F)(F)F)cc4)C(c4cc[nH]n4)C3)cc2N1 (stereo not drawn) [Example 37] , thanks.
[out] 2250

[in] Repeat for the following compound: O=C1COc2ccc(C(=O)N3CCC(Oc4ccc(C(F)(F)F)cc4)CC3)cc2N1 [Example 15]
[out] 76

[in] How about O=C1COc2ccc(C(=O)N3CCN(CCc4cccc(Cl)c4)C(c4cc[nH]n4)C3)cc2N1 (stereo not drawn) [Example 35] ?
[out] 1830

[in] Proceed to COc1ccc(CC2CCN(C(=O)c3ccc4c(c3)NC(=O)CO4)CC2)cc1 [Example 5]
[out] 170

[in] O=C1COc2ccc(C(=O)N3CCC(Cc4ccccc4-c4ccccc4)CC3)cc2N1 [Example 21] , same question.
[out] 130

[in] // query: O=C1COc2ccc(C(=O)N3CCC(F)(Cc4ccc(Cl)cc4)CC3)cc2N1 [Example 23]
[out] 300

====

Recorded IC50 by entry
Molecular target: MAGL (recombinant wild-type) (Homo sapiens)
Assay: MAGL inhibitory activity, hydrolysis of 4-nitrophenylacetate to 4-nitrophenol (absorbance at 405 nm)
Conditions: 1 nM MAGL, 300 μM 4-nitrophenylacetate, 15 min preincubation at RT, slope of absorbance at 405 nm between 5 and 80 min
Procedure: Compounds were profiled for MAGL inhibitory activity by measuring the enzymatic activity of MAGL by following the hydrolysis of 4-nitorphenylacetate resulting in 4-nitrophenol, which absorbs at 405-412 nm (G. G. Muccioli, G. Labar, D. M. Lambert, Chem. Bio. Chem. 2008, 9, 2704-2710). The assay was carried out in 384 well assay plates (black with clear bottom, non-binding surface treated, Corning Ref. 3655) in a total volume of 40 μL. […]
Only the number, expressed in nM, is required.

O=C1COc2ccc(C(=O)N3CCC(Cc4ccc(F)cc4)CC3)cc2N1 ... 88
O=C1COc2ccc(C(=O)N3CCC(C(=O)N4CCCCC4)CC3)cc2N1 ... 4240

--- query ---
[in] Find the measured IC50: item COc1cccc(CC2CCN(C(=O)c3ccc4c(c3)NC(=O)CO4)CC2)c1 , target or system MAGL (recombinant wild-type) (Homo sapiens).
[out] 52

Just for reference, patent US20230183224A1 is where these values come from.
